Data origin: BindingDB's records for doi:10.1016/j.bmcl.2009.04.116

Target: Nociceptin receptor (Homo sapiens, UniProt P41146)
Sequence (P41146 whole entry): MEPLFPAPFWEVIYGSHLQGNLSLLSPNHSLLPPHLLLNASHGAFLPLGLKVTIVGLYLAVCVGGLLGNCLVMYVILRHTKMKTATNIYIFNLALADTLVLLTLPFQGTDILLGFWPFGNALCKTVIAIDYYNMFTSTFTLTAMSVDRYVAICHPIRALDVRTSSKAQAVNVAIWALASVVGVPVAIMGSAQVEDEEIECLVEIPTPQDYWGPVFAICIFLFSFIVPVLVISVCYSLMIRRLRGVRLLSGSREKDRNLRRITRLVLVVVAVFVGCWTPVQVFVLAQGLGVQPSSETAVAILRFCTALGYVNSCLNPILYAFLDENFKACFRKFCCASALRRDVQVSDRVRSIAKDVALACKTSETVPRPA
Test: In Vitro Binding Assay (IC50) and In Vitro Agonism/Antagonism Measurements (EC50/IC50)
This listing pairs compounds with measured pEC50.
# pEC50 = -log10(concentration in molar units)

Compound: Cc1ncc(-c2c(C)c(CNC3CCCC3)nn2-c2ncccc2Cl)cc1F
pEC50: 8.92
//
Compound: Cc1ncc(-c2c(C)c(CN[C@H]3CC[C@@H](F)C3)nn2-c2ncccc2Cl)cc1F
pEC50: 9.51
//
Compound: Cc1ccc(-c2c(C)c(CN[C@H]3CC[C@@H](F)C3)nn2-c2ncccc2Cl)cn1
pEC50: 9.00
//
Compound: Cc1ccc(-c2c(C)c(CNC3CCCC3F)nn2-c2ncccc2Cl)cn1 (stereo not given)
pEC50: 8.15

As a next step, examine the compound that follows.
Ask: Consider the compound Cc1ccc(-c2c(C)c(CNC3CCC(F)(F)C3)nn2-c2ncccc2Cl)cn1 (stereo not given) . State its measured pEC50.
Reply: 8.35
